The following compounds are shown together with reported inhibition of aggregation values.
procedure text: reduction of polyQ htt aggregates in cells – imaging, exon1htt(103Q)mCFP cells, high-content imaging, primary screen (AID 483);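 also: compound exposure lasted 3 days before fixation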
assay context: exon1htt(103Q)mCFP cell line, aggregate imaging, at 2 µM; hits give high values
Active and inactive are the calls of the source.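 The calls were made as follows: active = visual image review flags a hit and inhibition of aggregation exceeds 20%; inconclusive = visual hit but inhibition at or below 20%; inactive = no hit on visual image review.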
measurement type: inhibition of aggregation

1. COC(=O)C1=C(C)NC(=O)C1(NC(=O)CN1CCCC1=O)C(F)(F)F (stereo not given)	6.7% (inactive)
2. O=C(NCCC1=CCCCC1)C1CCN(S(=O)(=O)c2cccc3nsnc23)CC1	4.8% (inactive)
3. CCN1C(=O)/C(=C2\C=Cc3ccccc3N2CC)OC1=S	0.5% (inactive)
4. CC(O)c1nc2ccccc2n1C1CCCCC1 (stereo not given)	-4.7% (inactive)
5. Cc1cc(OCC(O)CN2CCN(CCO)CC2)ccc1C(C)C (stereo not given)	16.4% (inactive)
